# assay_info: NCI Yeast Anticancer Drug Screen. Data for the rad52 strain (AID 147)
# measurement_context: S. cerevisiae rad52 mutant growth inhibition; at 1.2 µM
This is part of a sample that, as a whole, favours compounds with a hit. Of some 79,000 tested, about 15% had one in any assay. Activity calls are given as the source filed them. Cut-off read from the data, not from the text of the source: active = growth inhibition above about 70%; inactive = the rest.
Classes used: Y (active), N (inactive)

>  <molecule>
CC1=NOC(=O)/C1=C/c1ccc2c(c1)OCO2

>  <discrete_label>
N

$$$$
>  <molecule>
C=C(C(=C)n1nnc(C(=O)OC)c1C(=O)OC)n1nnc(C(=O)OC)c1C(=O)OC

>  <discrete_label>
N

$$$$
>  <molecule>
CCC(C)NC1=NCC(C)S1 (stereo not given)

>  <discrete_label>
N

$$$$
>  <molecule>
CCN(CC)CCN(C)CCc1ccc(Br)cc1

>  <discrete_label>
N

$$$$
>  <molecule>
O=C1/C(=C/c2ccccc2)CCCC1CN1CCCCC1 (stereo not given)

>  <discrete_label>
N

$$$$
>  <molecule>
Clc1ccc(NCNC2Nc3ccccc3N2)cc1Cl

>  <discrete_label>
N

$$$$
>  <molecule>
Cc1cc(=O)oc2c(C)c3occc(=O)c3cc12

>  <discrete_label>
N

$$$$
>  <molecule>
CN(CCN(C)Cc1ccccc1)Cc1ccccc1

>  <discrete_label>
N

$$$$
>  <molecule>
CCc1ccc2c(c1)N(CC(C)CN(C)C)c1ccccc1S2 (stereo not given)

>  <discrete_label>
N

$$$$
>  <molecule>
O=C1NC(=O)c2ccc([N+](=O)[O-])c3cccc1c23

>  <discrete_label>
N

$$$$
>  <molecule>
O=C(C[n+]1ccc2ccccc2c1)c1ccc2ccccc2c1

>  <discrete_label>
N

$$$$
>  <molecule>
COc1cc([C@@H]2c3cc4c(cc3[C@H](OC3OC5COC(C(C)C)OC5C(O)C3O)C3COC(=O)[C@@H]32)OCO4)cc(OC)c1O (stereo not given in full)

>  <discrete_label>
N

$$$$
>  <molecule>
Cc1ccc(NCCNCCO)c2c(=O)c3cc(O)ccc3sc12

>  <discrete_label>
N

$$$$
>  <molecule>
Brc1ccccc1-c1ncc(-c2ccccc2)o1

>  <discrete_label>
N

$$$$
>  <molecule>
CCCCCCCCCCCC1N=C(N)NC(CCCO)=C1C(=O)OC (stereo not given)

>  <discrete_label>
N

$$$$
>  <molecule>
Nc1ccn(C2OC(COP(=O)(O)O)C(O)C2O)c(=O)n1 (stereo not given)

>  <discrete_label>
N

$$$$
>  <molecule>
COc1cc(C2c3cc4c(cc3OC(OC(C)=O)C2C)OCO4)cc(OC)c1OC (stereo not given)

>  <discrete_label>
N

$$$$
>  <molecule>
C#CCN(Cc1ccc2nc(N)[nH]c(=O)c2c1)c1ccc(C(=O)NC(CCC(=O)O)C(=O)O)cc1 (stereo not given)

>  <discrete_label>
N

$$$$
>  <molecule>
CCOc1ccccc1N=Cc1c2ccccc2cc2ccccc12

>  <discrete_label>
N

$$$$
>  <molecule>
COc1ccc(NC(=O)CC2SC(=Nc3ccccc3C)NC2=O)c([N+](=O)[O-])c1 (stereo not given)

>  <discrete_label>
N

$$$$
>  <molecule>
COC(=O)CC1CCc2c(ccc3ccccc23)C1(C)C(=O)OC (stereo not given)

>  <discrete_label>
N

$$$$
>  <molecule>
Cc1ccc(Sc2ccccc2N)cc1

>  <discrete_label>
N

$$$$
>  <molecule>
O=c1c2ccccc2nc(-c2ccccc2)n1O

>  <discrete_label>
N

$$$$
>  <molecule>
c1ccc(CCN2CCc3ccccc3C2)cc1

>  <discrete_label>
N

$$$$
>  <molecule>
NC(=O)c1c([N+](=O)[O-])cc(C(F)(F)F)cc1[N+](=O)[O-]

>  <discrete_label>
N

$$$$
>  <molecule>
O=C(Nc1ccc(Cl)cc1)Nc1nnc2nc(C(C(=O)c3cccc([N+](=O)[O-])c3Cl)c3nc4nnc(NC(=O)Nc5ccc(Cl)cc5)n4[nH]c3=O)c(=O)[nH]n12

>  <discrete_label>
N

$$$$
>  <molecule>
CC(C)(C)N=C(NO)c1ccccc1

>  <discrete_label>
N

$$$$
>  <molecule>
Nc1ccc(F)cc1S

>  <discrete_label>
N

$$$$
>  <molecule>
COC(=O)/C=C(/CC(=O)OC)C(=O)OC

>  <discrete_label>
N

$$$$
>  <molecule>
Cc1cccc2c1nc1ccc(Cl)cc1[n+]2C

>  <discrete_label>
N

$$$$
>  <molecule>
CCCCN(CCCC)C(=O)/C=C/c1ccccc1

>  <discrete_label>
N

$$$$
>  <molecule>
CCCCN(CCCC)CCC(O)c1cc2c(Cl)cc(Cl)cc2c2cc(C(F)(F)F)ccc12 (stereo not given)

>  <discrete_label>
N

$$$$
>  <molecule>
Cc1nc2ccccc2nc1NNc1ccccc1

>  <discrete_label>
N

$$$$
>  <molecule>
NC1CCCCC1N.Nc1c(N=Nc2ccc(-c3ccc(N=Nc4cc(S(=O)(=O)[O-])c5ccccc5c4N)cc3)cc2)cc(S(=O)(=O)[O-])c2ccccc12.[OH3+].[OH3+].[Pt+4]

>  <discrete_label>
N

$$$$
>  <molecule>
Cc1cccc(/C=N/NC(=S)N2CCCC2)n1

>  <discrete_label>
N

$$$$
>  <molecule>
O=C1Nc2ccc(Br)cc2C1=Nc1ccc2c(c1)OCO2

>  <discrete_label>
N

$$$$
>  <molecule>
CCc1cc(O)c(Cl)c(C)c1Cl

>  <discrete_label>
N

$$$$
>  <molecule>
CN(C)CCNc1ccc2ncnc3c2c1C(=O)c1ccccc1-3

>  <discrete_label>
Y

$$$$
>  <molecule>
Cn1c(-c2ccc(/C=N\N3CCN(/N=C/c4ccc(-c5c[n+]6ccccc6n5C)cc4)CC3)cc2)c[n+]2ccccc12

>  <discrete_label>
N

$$$$
>  <molecule>
CC1CC(C)(C)CC(OCCN2CCCCC2)(c2ccccc2)C1 (stereo not given)

>  <discrete_label>
N

$$$$
>  <molecule>
CC(C)(C)C1=CC(=CC=C2C=CN(CCCCCCCCCCCO)C=C2)C=C(C(C)(C)C)C1=O

>  <discrete_label>
N

$$$$
>  <molecule>
CC1=C(SCc2ccccc2)C(=O)c2ccccc2C1=O

>  <discrete_label>
N

$$$$
>  <molecule>
O=C1NC(SSC2=NNC3(C(=O)N2)c2ccccc2-c2ccccc23)=NNC12c1ccccc1-c1ccccc12

>  <discrete_label>
N

$$$$
>  <molecule>
CC(C)/C(Cl)=N\OC(=O)Nc1ccc(F)cc1F

>  <discrete_label>
N

$$$$
>  <molecule>
Nc1nc(N)c2nc(CNc3ccc(C(=O)NC(CCC(=O)O)C(=O)O)cc3F)cnc2n1 (stereo not given)

>  <discrete_label>
N

$$$$
